Reported GI50 values are given for each entry in this list.
- System: RXF 393
- Assay comment: NCI tumour cell line growth inhibition, 48 h
Calls of active or inactive are those of the source. Cut-off read from the data, not from the text of the source: active = GI50 up to about 1.1 µM and inactive = higher.

Below, each entry is followed by its recorded GI50 result.
| Compound | Reported |
| --- | --- |
| O=C1OS2(OC(=O)c3cccc4cccc2c34)c2ccccc21 (stereo unspecified) | > 100 µM (inactive) |
| Nc1ccc2c(O)cc(O)nc2n1 | > 100 µM (inactive) |
| FC(F)(F)P1C2C=CC(CC2)C1(F)F (stereo unspecified) | > 100 µM (inactive) |
| CCC(NC(C)c1ccccc1)C(=O)c1ccc(OCc2ccccc2)c(OCc2ccccc2)c1 (stereo unspecified) | > 100 µM (inactive) |
| COc1cc(O)c(C(=O)/C=C/c2ccc(OC)c(OCc3ccccc3)c2)c(OC)c1 | 5.21 µM (inactive) |

Could you now consider this next compound?
Entry under test: C=CCn1c2ccccc2[n+]2cc([N+](=O)[O-])ccc12 . Its GI50 was 67.3 µM (inactive)

====

- Test system: HCC 2998
- Assay comment: NCI tumour cell line growth inhibition, 48 h
The source made the active and inactive calls. Cut-off read from the data, not from the text of the source: active = GI50 up to about 1.1 µM and inactive = higher.
Just give me one of these, please: active, inactive

These recorded examples may help you get a feel for the data.
| Compound | Cat |
| --- | --- |
| Clc1cc(OCc2nn3c(Cc4ccccc4)nnc3s2)c(Cl)cc1OCc1nn2c(Cc3ccccc3)nnc2s1 | inactive |
| COc1cc(O)c(C(=O)/C=C/c2ccc(OC)c(OCc3ccccc3)c2)c(OC)c1 | inactive |
| C=CCN(C)CN(C)c1nc(N(C)C)nc(N(C)C)n1 | inactive |

[in] Just curious, what result did Cc1cc(=O)oc2c(CN(CCCl)CCCl)c(O)ccc12 get here?
[out] inactive

[in] Just curious, what result did CCOC1CN(C)/C(=N\c2cccc3ccccc23)S1 (stereo unspecified) get here?
[out] inactive

[in] Just curious, what result did ClC1=C(Cl)C2OC3C=CCC3OC2C(Cl)=C1Cl (stereo unspecified) get here?
[out] inactive

[in] Just curious, what result did Nc1nc(S)nc(C(=O)Nc2nccs2)c1-c1ccccc1 get here?
[out] inactive

[in] Just curious, what result did CCN1/C(=C/C(C)=C/c2sc3ccccc3[n+]2CC)Sc2ccccc21 get here?
[out] active

[in] Just curious, what result did CN1CCN(/C(N)=C(\C#N)C(=O)Nc2ccc(Cl)cc2)CC1 get here?
[out] inactive

[in] Just curious, what result did C/C=C/[C@@H]1O[C@H](CC#C[Si](C)(C)C)[C@@]2(C=O)C(C)=CC[C@H](C(C)C)[C@@H]12 get here?
[out] inactive

[in] Just curious, what result did CCOC(=O)[C@@]12C(C)=CC(=O)O[C@]1(C)C1C(=O)NC(=O)C12 (stereo partly specified) get here?
[out] inactive

====

- Test system: RPMI-8226
- Assay comment: NCI tumour cell line growth inhibition, 48 h
The source made the active and inactive calls. Rule as the data show it: active = GI50 up to about 1.1 µM and inactive = higher.
Measurement label: GI50

| Compound | Target under test | GI50 |
| --- | --- | --- |
| O=C1NN=CN2C(=O)CCC12 (stereo not drawn) | RPMI-8226 | > 100 µM (inactive) |
| COc1cc(O)c(C(=O)/C=C/c2ccc(OC)c(OCc3ccccc3)c2)c(OC)c1 | RPMI-8226 | 5.86 µM (inactive) |
| CNC(=O)CCCNC(=O)CCCC(=O)N(C)C | RPMI-8226 | > 100 µM (inactive) |
| NC(=O)c1cc2ccccc2o/c1=N/c1ccccc1 | RPMI-8226 | > 100 µM (inactive) |
| O=Cc1ccc2c(c1I)OCO2 | RPMI-8226 | > 100 µM (inactive) |
| O=[N+]([O-])c1ccc2nc3n(c2c1)C(c1c(F)cccc1F)SC3 (stereo not drawn) | RPMI-8226 | > 10 µM (inactive) |
| Nc1nc(N)c2nc(CN(C=O)c3ccc(C(=O)O)cc3)cnc2n1 | RPMI-8226 | 14.7 µM (inactive) |
| CCCCCCCCCC1CC(=O)OC2=C1C(=O)CCC2 (stereo not drawn) | RPMI-8226 | > 100 µM (inactive) |
| C(/COc1cccnc1)=N\NC1=NCCN1 | RPMI-8226 | > 100 µM (inactive) |
| COC1(OC)C=CC(=O)C=C1 | RPMI-8226 | 2.74 µM (inactive) |

Entry under test: c1ccncc1 . Its GI50 was > 100 µM (inactive)

Entry under test: Fc1cccc(C2SCc3nc4ccccc4n32)c1 (stereo not drawn) . Its GI50 was 23.5 µM (inactive)

Entry under test: Cn1cnc(C(N)=[Se])c1N . Its GI50 was 2.94 µM (inactive)

====

- Tested on: TK-10
- Assay comment: NCI tumour cell line growth inhibition, 48 h
Calls of active or inactive are those of the source. Cut-off read from the data, not from the text of the source: active = GI50 up to about 1.1 µM and inactive = higher.
Just give me one of these, please: yes (active), no (inactive)

These recorded examples may help you get a feel for the data.
| Compound | Target under test | Cat |
| --- | --- | --- |
| Cc1ccc(-c2ccc3c(c2)Sc2ccccc2O3)n1C | TK-10 | yes |
| CC1=CC(=O)C(=O)C2=C1OC1(C2)C(C)CCC2C3(C)CCC(O)C(C)(C)C3CCC21C (stereo not given) | TK-10 | no |
| O=C(c1ccccc1)c1ccc2[nH]c(-c3c(Cl)c(Cl)c(Cl)c(Cl)c3C(=O)Nc3ccco3)nc2c1 | TK-10 | no |
| Cc1[nH]c2ccccc2c1-c1cc(-c2cc(-c3c(C)[nH]c4ccccc34)nc(N)n2)nc(N)n1 | TK-10 | no |
| CCOc1ncn(-c2ccc(NC(=S)Nc3cccc(O)c3)cc2)n1 | TK-10 | no |
| CCOC(=O)Cn1sc2ncc([N+](=O)[O-])cc2c1=O | TK-10 | no |

[in] Just curious, what result did COc1ccc2nc3c(C)cc4ccccc4n3c2c1 get here?
[out] no

[in] Just curious, what result did COC(=O)c1ccc(NCc2cc(O)c3ccccc3c2O)cc1 get here?
[out] no

[in] Just curious, what result did Cc1ccc(NC(=O)c2cccc(OP(=O)(O)Nc3ccc(C)cc3)c2)cc1 get here?
[out] no

[in] Just curious, what result did O=C(O)c1ccc(/C=N/N=C2c3ccccc3-c3ccccc32)cc1 get here?
[out] no

====

- Tested on: DU-145
- Assay comment: NCI tumour cell line growth inhibition, 48 h
The source made the active and inactive calls. No stated cut-off is given here; in the data, active = GI50 up to about 1.1 µM and inactive = higher.
Reported GI50 values are given for each entry in this list.

Below, each entry is followed by its recorded GI50 result.
| Compound | Reported |
| --- | --- |
| CCN(CC)C(=S)N/N=C(/c1ccccc1)c1ccccn1 | 0.402 µM (active) |
| COC(=O)C1=C(C(=O)OC)SC(=C2SC3=C(SC(=C4SCCS4)S3)S2)S1 | > 100 µM (inactive) |
| O=C(c1ccccc1)c1ccc2[nH]c(-c3c(Cl)c(Cl)c(Cl)c(Cl)c3C(=O)Nc3ccco3)nc2c1 | 78.9 µM (inactive) |
| CO[C@@H]1[C@H](O)CC[C@]2(CO2)[C@H]1[C@@]1(C)O[C@@H]1CC=C(C)C | 140 µM (inactive) |
| COc1cccc(C2c3cc4c(cc3OC(N3CCCC3)C2C)OCO4)c1O (stereo not given) | 4.41 µM (inactive) |
| CCN(CC)CCC1CCCCN1CC(=O)N1c2ccccc2NC(=O)c2ccccc21 (stereo not given) | > 100 µM (inactive) |

Could you now consider this next compound?
Entry under test: Nc1nncc2[nH]nnc12 . Its GI50 was > 100 µM (inactive)

====

- Tested on: A498
- Assay comment: NCI tumour cell line growth inhibition, 48 h
The source made the active and inactive calls. Rule as the data show it: active = GI50 up to about 1.1 µM and inactive = higher.
Measurement label: GI50

| Compound | Target under test | Measurement label | Reported |
| --- | --- | --- | --- |
| O=C1c2ccccc2NC(c2cc(Cl)cc(Cl)c2O)N1CCc1ccccn1 (stereo unspecified) | A498 | GI50 | > 100 µM (inactive) |
| NC(=O)C#CC#CC#CCO | A498 | GI50 | 4.4 µM (inactive) |
| N#C/C=C(/NC(=O)Nc1ccccc1)N1CCCC1 | A498 | GI50 | > 100 µM (inactive) |

Query CCCCN/C(=N/C#N)NCc1ccccc1 on A498; GI50 returned: > 100 µM (inactive)

Query NC(=O)NC(=O)CCC(NS(=O)(=O)c1ccccc1)C(=O)NC(N)=O (stereo unspecified) on A498; GI50 returned: > 100 µM (inactive)

Query C/C(=C\CC[C@]1(C)OC(C)(C)OC1CC/C(C)=C/CO[Si](c1ccccc1)(c1ccccc1)C(C)(C)C)CC/C=C/CO[Si](C)(C)C(C)(C)C (stereo partly specified) on A498; GI50 returned: > 100 µM (inactive)

Query COC(=O)c1c2c(cc3c1CC1(Cc4ccccc4C1)C3)CCC2 on A498; GI50 returned: 25.9 µM (inactive)

Query CCN(CC)Cc1cc(/N=N\c2c(O)ccc3c(/N=N\c4ccc(O)c(CN(CC)CC)c4)c(O)ccc23)ccc1O on A498; GI50 returned: 13.3 µM (inactive)
